Reference source: ChEMBL document CHEMBL3124896

- Test system: OVCAR-3
- measurement protocol: Cytotoxicity against human OVCAR3 cells by SRB assay
- Format: functional
// returns not satisfied unless GI50 is strictly below 100 nM, in which case satisfied

Req: Lab note: GI50 threshold 100 nM. Does this molecule come in strictly under it? COc1cnc2c(c1)C(=O)c1c-2n(CCCn2ccnc2)c(=O)c2cc([N+](=O)[O-])ccc12.Cl
Resp: satisfied

Req: Is 100 nM strictly greater than the molecule's reported GI50? molecule: CN(C)CCCn1c2c(c3ccc([N+](=O)[O-])cc3c1=O)C(=O)c1cccnc1-2
Resp: not satisfied

Req: Strictly below 100 nM: is that where GI50 of COc1cnc2c(c1)C(=O)c1c-2n(CCCNCCO)c(=O)c2cc([N+](=O)[O-])ccc12 sits?
Resp: satisfied

Req: Item COc1cnc2c(c1)C(=O)c1c-2n(CCCN(C)CCO)c(=O)c2cc([N+](=O)[O-])ccc12 : GI50 beneath 100 nM, strictly?
Resp: not satisfied

Req: Lab note: confirm whether the reported GI50 for this molecule is below 100 nM, equality not counting. molecule: COc1cnc2c(c1)C(=O)c1c-2n(CCCN2CCC(O)CC2)c(=O)c2cc([N+](=O)[O-])ccc12
Resp: satisfied

* * *

- System: HCT-116
- measurement protocol: Cytotoxicity against human HCT116 cells by SRB assay
- Type: functional
quantity kind: log10 GI50 (log10 of the value in nM)
Scale type: logarithmic (base 10). Underlying GI50 unit: nM.

Use the examples below as a reference point.
INSERT INTO measurements (smiles_entry, quantity_kind, meas_value) VALUES
  ('COc1cc2c3c(n(C)c(=O)c2cc1OC)-c1cc2c(cc1C3=O)OCO2', 'log10 GI50', 4.54),
  ('COc1cnc2c(c1)C(=O)c1c-2n(CCCN)c(=O)c2cc([N+](=O)[O-])ccc12', 'log10 GI50', 1.56),
  ('CN(C)CCCn1c2c(c3ccc([N+](=O)[O-])cc3c1=O)C(=O)c1cccnc1-2', 'log10 GI50', 2.69),
  ('COc1cnc2c(c1)C(=O)c1c-2n(CCCN(C)CCO)c(=O)c2cc([N+](=O)[O-])ccc12', 'log10 GI50', 1.69);

With those in mind, consider the next molecule.
Req: What log10 GI50 appears in the records for this molecule with HCT-116? COc1cnc2c(c1)C(=O)c1c-2n(CCCN2CCC(O)CC2)c(=O)c2cc([N+](=O)[O-])ccc12
Resp: 1.00
